Details: in isobutanol, 288.15 K
OBSERVABLE: solubility (mole fraction)
Numbers only.

Data request: Please look up its solubility (mole fraction): "COC(=O)N(OC)c1ccccc1COc1ccn(-c2ccc(Cl)cc2)n1"
Data returned: 0.00377

###

Conditions: in isopropanol, 308.15 K
OBSERVABLE: solubility (mole fraction)
Give bare numbers.

Data request: Need solubility (mole fraction) of "COC(=O)N(OC)c1ccccc1COc1ccn(-c2ccc(Cl)cc2)n1" , thanks.
Data returned: 0.0163

###

Details: in cyclohexane, 298.15 K
OBSERVABLE: solubility (mole fraction)

Data request: Consider the compound "COC(=O)N(OC)c1ccccc1COc1ccn(-c2ccc(Cl)cc2)n1" and give its measured solubility (mole fraction).
Data returned: 0.00311
